Would you mind telling me the reported solubility at 24 h of each entry?
# assay summary: physchem
# assay setup: pH 7.4, aqueous buffer, kinetic from dmso stock, Solubility Range

These solved cases illustrate the format of a correct answer.
CCNC(=O)Nc1nc2cc(-c3cnc(N4CCC(C)(C(=O)O)CC4)nc3)cc(C#Cc3cccnc3)c2s1 [Compound 148] : > 800 µg/mL
CCNC(=O)Nc1nc2cc(-c3cnc(N4CCC(CC)(C(=O)O)CC4)s3)cc(-c3ccccn3)c2s1 [Compound 221] : > 800 µg/mL
CCNC(=O)Nc1nc2cc(-c3cnc(N4CCC(O)(C(=O)OC)CC4)nc3)cc(-c3ccccn3)c2s1 [Compound 173] : 12.5 to 400 µg/mL
CCNC(=O)Nc1nc2cc(-c3cnc(N4CCC(C)(C(=O)O)CC4)nc3)cc(COC)c2s1 [Compound 202] : > 800 µg/mL
CCNC(=O)Nc1nc2cc(-c3cnc(N4CCC(C)(C(=O)O)CC4)nc3)cc(NC(=O)c3ncccn3)c2s1 [Compound 146] : 12.5 to 400 µg/mL
CCNC(=O)Nc1nc2cc(-c3cnc(N4CCC(=O)C(C)(C(=O)OC)C4)nc3)cc(-c3ccccn3)c2s1 (stereo not shown) [Compound 170] : < 12.5 µg/mL
CCNC(=O)Nc1nc2cc(-c3cnc(N4CCC(C)(C(=O)NS(C)(=O)=O)CC4)nc3)cc(-c3ccccn3)c2s1 [Compound 186] : > 800 µg/mL
CCNC(=O)Nc1nc2cc(-c3cnc(CN4CCC(C)(C(=O)O)CC4)nc3)cc(-c3ccccn3)c2s1 [Compound 160] : > 800 µg/mL
CCNC(=O)Nc1nc2cc(-c3cnc(N4CCC(C)(C(=O)O)CC4)nc3)cc(-c3ncc(F)cc3F)c2s1 [Compound 54] : > 800 µg/mL
CCNC(=O)Nc1nc2cc(-c3cnc(N4CCC(C)(C(=O)O)CC4)nc3)cc(C#Cc3cccc(OC)n3)c2s1 [Compound 152] : 12.5 to 400 µg/mL

Each compound below has a reported value. Please supply its solubility at 24 h.
1. CCNC(=O)Nc1nc2cc(-c3cnc(N4CCC(CC)(C(=O)O)CC4)nc3)cc(N3CCOCC3)c2s1 [Compound 114]
2. CCNC(=O)Nc1nc2cc(-c3cnc(N4CCC(C(N)=O)(c5ccccc5)CC4)nc3)cc(-c3ccccn3)c2s1 [Compound 185]
3. CCCC1(C(=O)O)CCN(c2ncc(-c3cc(-c4nccc(OC)n4)c4sc(NC(=O)NCC)nc4c3)cn2)CC1 [Compound 127]

**A:**
["400 to 800 µg/mL", "< 12.5 µg/mL", "12.5 to 400 µg/mL"]

Each compound below has a reported value. Please supply its solubility at 24 h.
1. CCNC(=O)Nc1nc2cc(-c3cnc(N4CCC(C)(C(=O)O)CC4)nc3)cc(-c3nc(C)ccc3OC)c2s1 [Compound 64]
2. CCNC(=O)Nc1nc2cc(-c3cnc(N4CCC(CC)(C(=O)O)CC4)cn3)cc(-c3nccc(C)n3)c2s1 [Compound 112]
3. CCCC1(C(=O)O)CCN(c2ncc(-c3cc(-c4cc(C#N)ccn4)c4sc(NC(=O)NCC)nc4c3)cn2)CC1 [Compound 123]
4. CCNC(=O)Nc1nc2cc(-c3cnc(N4CCC(C(=O)OCC)(S(C)(=O)=O)CC4)nc3)cc(-c3ccccn3)c2s1 [Compound 176]
5. CCNC(=O)Nc1nc2cc(-c3cnc(N4CCC(C)(C(=O)O)CC4)nc3)cc(/C(C)=N/OCC(F)(F)F)c2s1 [Compound 94]
6. CCNC(=O)Nc1nc2cc(-c3cnc(N4CCC(C)(C(=O)O)CC4)nc3)cc(-c3cnccn3)c2s1 [Compound 11]

**A:**
1: > 800 µg/mL; 2: 12.5 to 400 µg/mL; 3: > 800 µg/mL; 4: 12.5 to 400 µg/mL; 5: > 800 µg/mL; 6: > 800 µg/mL

Each compound below has a reported value. Please supply its solubility at 24 h.
1. CCNC(=O)Nc1nc2cc(-c3cnc(N4CCC(C)(C(=O)O)CC4)nc3OC)cc(-c3ccccn3)c2s1 [Compound 220]
2. CCNC(=O)Nc1nc2cc(-c3cnc(N4CCC(C)(C(=O)O)CC4)nc3)cc(-c3ncc(CC)cn3)c2s1 [Compound 60]
3. CCNC(=O)Nc1nc2cc(-c3cnc(N4CCC(CC)(C(=O)O)CC4)nc3)cc(C=O)c2s1 [Compound 199]
4. CCNC(=O)Nc1nc2cc(-c3cnc(N4CCC(C)(C(=O)O)CC4)nc3)cc(OC)c2s1 [Compound 200]
5. CCNC(=O)Nc1nc2cc(-c3cnc(N4CCC(C)(C(=O)O)CC4)nc3)cc(-c3ccc(CN4CCOCC4)cn3)c2s1 [Compound 205]
6. CCNC(=O)Nc1nc2cc(-c3cnc(N4CCC(C)(C(=O)O)CC4)nc3)cc(-c3cc(C)c(F)cn3)c2s1 [Compound 85]

**A:**
1: 12.5 to 400 µg/mL; 2: 12.5 to 400 µg/mL; 3: > 800 µg/mL; 4: > 800 µg/mL; 5: 400 to 800 µg/mL; 6: 12.5 to 400 µg/mL

Each compound below has a reported value. Please supply its solubility at 24 h.
1. CCNC(=O)Nc1nc2cc(-c3cnc(N4CCC(C)(C(=O)O)CC4)nc3)cc(-c3cc(OC)ccn3)c2s1 [Compound 17]
2. CCNC(=O)Nc1nc2cc(-c3cnc(N4CCC(C(=O)O)(c5ccccc5)CC4)nc3)cc(-c3ccccn3)c2s1 [Compound 129]
3. CCNC(=O)Nc1nc2cc(-c3cnc(N4CCC(C)(C(=O)O)CC4)nc3)cc(-c3cscn3)c2s1 [Compound 21]

**A:**
1: > 800 µg/mL; 2: 12.5 to 400 µg/mL; 3: > 800 µg/mL

---

Would you mind telling me the reported solubility at 24 h of each entry?
# assay summary: physchem
# assay setup: pH 7.4, aqueous buffer, kinetic from dmso stock, Solubility Range (maximum solubility)

Each molecule below has a reported value. Please supply its solubility at 24 h.
1. CCNC(=O)Nc1nc2cc(-c3cnc(N4CCC(C)(C(=O)O)CC4)nc3)cc(COCCOC)c2s1
2. CCNC(=O)Nc1nc2cc(-c3cnc(N4CCC(C(=O)O)(C(F)(F)F)CC4)nc3)cc(-c3ccccn3)c2s1
3. CCNC(=O)Nc1nc2cc(-c3cnc(N4CCC(CC)(C(=O)O)CC4)nc3)cc(-c3nccc(OC)n3)c2s1
4. CCNC(=O)Nc1nc2cc(-c3cnc(N4CCC(C)(C(=O)O)CC4)nc3)cc(NC(=O)c3ccccn3)c2s1
5. CCNC(=O)Nc1nc2cc(-c3cnc(N4CCC(CC)(C(=O)O)CC4)nc3)cc(N3CCOCC3)c2s1
6. CCNC(=O)Nc1nc2cc(-c3cnc(N4CCC(COC)(C(=O)O)CC4)nc3)cc(-c3ccccn3)c2s1

**A:**
> 800 µg/mL
> 800 µg/mL
> 800 µg/mL
> 800 µg/mL
400 to 800 µg/mL
> 800 µg/mL

Each molecule below has a reported value. Please supply its solubility at 24 h.
1. CCNC(=O)Nc1nc2cc(-c3cnc(N4CCC(CC)(C(=O)O)CC4)nc3)cc(/C=N\OC)c2s1
2. CCNC(=O)Nc1nc2cc(-c3cnc(N4CCC(C)(C(=O)O)CC4)cn3)cc(-c3ccccn3)c2s1

**A:**
> 800 µg/mL
> 800 µg/mL

Each molecule below has a reported value. Please supply its solubility at 24 h.
1. CCNC(=O)Nc1nc2cc(-c3cnc(N4CCC(C)(C(=O)O)CC4)nc3)cc(-c3cc(=O)n(CCOC)cn3)c2s1
2. CCNC(=O)Nc1nc2cc(-c3cnc(N4CCC(CC)(C(=O)O)CC4)nc3)cc(/C(C)=N/OC)c2s1
3. CCCC1(C(=O)O)CCN(c2ncc(-c3cc(-c4cc(OC)ccn4)c4sc(NC(=O)NCC)nc4c3)cn2)CC1

**A:**
["400 to 800 µg/mL", "> 800 µg/mL", "> 800 µg/mL"]

Each molecule below has a reported value. Please supply its solubility at 24 h.
1. CCNC(=O)Nc1nc2cc(-c3cnc(N4CCC(C)(C(=O)O)C4)nc3)cc(-c3ccccn3)c2s1 (stereo not drawn)
2. CCNC(=O)Nc1nc2cc(-c3cnc(N4CCC(C)(C(=O)O)CC4)nc3)cc(/C=N/OC)c2s1
3. CCNC(=O)Nc1nc2cc(-c3cnc(N4CCC(CC)(C(=O)O)CC4)nc3)cc(C3=NOCC3)c2s1
4. CCNC(=O)Nc1nc2cc(-c3cnc(N4CCC(C)(C(=O)O)CC4)nc3)cc(C#Cc3cccnc3)c2s1

**A:**
1: > 800 µg/mL; 2: > 800 µg/mL; 3: > 800 µg/mL; 4: > 800 µg/mL
